Cited source for all entries: ChEMBL document CHEMBL1129270

Test system: Mus musculus (mouse)
Experiment: Plasma Concentration after 60 min of oral administration to mice

[
  {
    "Compound": "CCOC(=O)NC(C(=O)NN(CC1CCCCC1)C[C@@H](O)[C@H](Cc1ccccc1)NC(=O)C(NC(=O)OCCOC)C(C)C)C(C)C (stereo partly drawn)",
    "Study System": "Mus musculus (mouse)",
    "concentration at 1 h": "< 200 nM"
  },
  {
    "Compound": "COC(=O)N[C@H](C(=O)N[C@@H](Cc1ccccc1)C(O)CN(Cc1ccc(C)cc1)NC(=O)[C@@H](NC(=O)OC)C(C)C)C(C)C (stereo partly drawn)",
    "Study System": "Mus musculus (mouse)",
    "concentration at 1 h": "< 200 nM"
  },
  {
    "Compound": "COCCOC(=O)NC(C(=O)NC(Cc1ccccc1)C(O)CN(CC1CCCCC1)NC(=O)C(NC(=O)OC)C(C)C)C(C)C (stereo not drawn)",
    "Study System": "Mus musculus (mouse)",
    "concentration at 1 h": "< 500 nM"
  }
]

###

Test: Plasma Concentration after 120 min of oral administration to mice
Format: ADME, organism-based
Details: mouse
# concentration at 2 h values compiled below

[
  {
    "Compound": "COC(=O)N[C@H](C(=O)N[C@@H](Cc1ccccc1)C(O)CN(Cc1ccc(OC)cc1)NC(=O)[C@@H](NC(=O)OC)C(C)C)C(C)C (stereo not given in full)",
    "concentration at 2 h": "< 200 nM"
  },
  {
    "Compound": "COC(=O)N[C@H](C(=O)N[C@@H](Cc1ccccc1)C(O)CN(Cc1ccc(C)cc1)NC(=O)[C@@H](NC(=O)OC)C(C)C)C(C)C (stereo not given in full)",
    "concentration at 2 h": "< 200 nM"
  },
  {
    "Compound": "COCCOC(=O)NC(C(=O)N[C@@H](Cc1ccccc1)[C@H](O)CN(CC1CCCCC1)NC(=O)C(NC(=O)OCCOC)C(C)C)C(C)C (stereo not given in full)",
    "concentration at 2 h": "< 500 nM"
  },
  {
    "Compound": "CCOC(=O)NC(C(=O)NN(CC1CCCCC1)C[C@@H](O)[C@H](Cc1ccccc1)NC(=O)C(NC(=O)OCCOC)C(C)C)C(C)C (stereo not given in full)",
    "concentration at 2 h": "< 200 nM"
  },
  {
    "Compound": "COCCOC(=O)NC(C(=O)NC(Cc1ccccc1)C(O)CN(CC1CCCCC1)NC(=O)C(NC(=O)OC)C(C)C)C(C)C (stereo not given)",
    "concentration at 2 h": "< 500 nM"
  }
]

###

Experiment: Plasma Concentration after 30 min of oral administration to mice
Assay type: ADME, organism-based
Conditions: mouse
Quantity Name: concentration at 0.5 h

[
  {
    "Molecule": "COCCOC(=O)NC(C(=O)NC(Cc1ccccc1)C(O)CN(CC1CCCCC1)NC(=O)C(NC(=O)OC)C(C)C)C(C)C (stereo not given)",
    "Quantity Name": "concentration at 0.5 h",
    "Value": "< 500 nM"
  },
  {
    "Molecule": "CCOC(=O)NC(C(=O)NN(CC1CCCCC1)C[C@@H](O)[C@H](Cc1ccccc1)NC(=O)C(NC(=O)OCCOC)C(C)C)C(C)C (stereo not given in full)",
    "Quantity Name": "concentration at 0.5 h",
    "Value": "< 200 nM"
  },
  {
    "Molecule": "COC(=O)N[C@H](C(=O)N[C@@H](Cc1ccccc1)C(O)CN(CCC(C)C)NC(=O)[C@@H](NC(=O)OC)C(C)C)C(C)C (stereo not given in full)",
    "Quantity Name": "concentration at 0.5 h",
    "Value": "< 200 nM"
  },
  {
    "Molecule": "COC(=O)N[C@H](C(=O)N[C@@H](Cc1ccccc1)C(O)CN(Cc1ccc(C)cc1)NC(=O)[C@@H](NC(=O)OC)C(C)C)C(C)C (stereo not given in full)",
    "Quantity Name": "concentration at 0.5 h",
    "Value": "< 200 nM"
  },
  {
    "Molecule": "COC(=O)N[C@H](C(=O)N[C@@H](Cc1ccccc1)C(O)CN(Cc1ccc(OC)cc1)NC(=O)[C@@H](NC(=O)OC)C(C)C)C(C)C (stereo not given in full)",
    "Quantity Name": "concentration at 0.5 h",
    "Value": "< 200 nM"
  }
]
